Biological target: human Edg-1(S1P1) (Homo sapiens)
Construct: expressed in transfected cells; host or cells: HEK-293
Assay: Cell system binding test: inhibition of [3H]-S1P binding to Edg-1(S1P1) gene transferred HEK-293 cells
Conditions: 10 μM compound, [3H]-S1P 10 nM, read-out: Cell system binding test % inhibition (10 μM)
Protocol: Cells (1×10^5 cells/well) obtained as described above were seeded in poly-L-lysine-coated 96-well plates (Corning Incorporated), and then incubated in a 5% carbon dioxide gas incubator for 12 hours at 37° C. with the use of an MEM medium (Invitrogen Corporation) containing 100 U/mL of penicillin, 100 μg/mL of streptomycin, a 1% MEM nonessential amino acid solution, and 10% FCS. […]
READOUT_KIND: inhibition at 10 µM (%)

Here are 5 molecules together with their reported answers.
STRUCTURE_AS_SMILES	inhibition at 10 µM (%)
CCn1c(OC)nnc1[C@@H](C)NS(C)(=O)=O	92.6
CCn1c(SCC(C)C)nnc1[C@@H](C)NS(=O)(=O)c1ccc(Cl)cc1	91.7
CCN(CC)C(=O)COc1nnc([C@@H](C)NS(=O)(=O)c2ccc(Cl)cc2)n1CC	82.2
CCn1c(OC)nnc1[C@@H](C)NS(=O)(=O)c1ccc(Br)c(C)c1	102
CCOc1nnc([C@@H](C)NS(=O)(=O)c2ccc(Br)c(Br)c2)n1CC	99.9

1 = CCn1c(OCC2CCC2)nnc1[C@@H](C)NS(=O)(=O)c1ccc(Cl)cc1
2 = CCn1c(OC)nnc1[C@@H](C)NS(=O)(=O)Cc1ccc(F)cc1
Between 1 and 2 , which one shows the smaller inhibition at 10 µM number? Refer to your chosen item by its label in the answer. 2
(2: 64.5%, 1: 99.9%)

###

Target: human Edg-1(S1P1) (Homo sapiens, UniProt P21453)
Construct: expressed in transfected cells; host or cells: HEK-293
Sequence (P21453 whole entry): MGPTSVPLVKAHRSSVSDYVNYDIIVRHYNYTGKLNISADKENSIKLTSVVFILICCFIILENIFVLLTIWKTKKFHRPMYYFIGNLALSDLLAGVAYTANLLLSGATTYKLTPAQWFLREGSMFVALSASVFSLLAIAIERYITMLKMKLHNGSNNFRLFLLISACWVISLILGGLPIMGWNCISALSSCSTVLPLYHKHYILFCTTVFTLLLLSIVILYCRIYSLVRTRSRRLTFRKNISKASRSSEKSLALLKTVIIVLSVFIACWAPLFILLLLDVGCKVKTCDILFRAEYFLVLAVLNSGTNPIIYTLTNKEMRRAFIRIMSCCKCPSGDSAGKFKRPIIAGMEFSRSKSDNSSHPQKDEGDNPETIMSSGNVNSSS
Assay: Membrane system binding test: inhibition of [33P]-S1P binding to the membrane fraction of Edg-1(S1P1) gene transferred HEK-293 cells
Conditions: 10 μM compound; [33P]-S1P 0.1 nM; membrane fraction of Edg-1(S1P1) gene transferred HEK-293 cells; read-out: Membrane system binding test % inhibition (10 μM)
READOUT_KIND: inhibition at 10 µM (%)

Here are 5 compounds together with their reported answers.
COMPOUND	U	inhibition at 10 µM
CCOc1nnc([C@@H](C)NS(=O)(=O)c2cc3ccccc3s2)n1CC [Compound 406]	%	92.5
CCOc1nnc([C@@H](C)NS(=O)(=O)c2cc(F)cc(F)c2)n1CC [Compound 433]	%	70.2
CCn1c(S)nnc1[C@@H](C)NS(=O)(=O)c1ccc(Cl)cc1 [Compound 90]	%	48.8
CCCOc1nnc([C@@H](C)NS(=O)(=O)c2ccc(Cl)cc2)n1CC [Compound 183]	%	97.7
C=CCSc1nnc([C@@H](Cc2ccccc2)NS(=O)(=O)c2ccc(Cl)cc2)n1CCC [Compound 141]	%	79.5

a = CCn1c(OC)nnc1[C@@H](C)NS(=O)(=O)c1ccc(OC(F)(F)F)cc1 [Compound 247]
b = CCn1c(OC2CCOC2)nnc1[C@@H](C)NS(=O)(=O)c1ccc(Cl)cc1 (some centres unmarked) [Compound 392]
Between a and b , which one shows the smaller inhibition at 10 µM number? Refer to your chosen item by its label in the answer. a

###

Molecular target: human Edg-1(S1P1) (Homo sapiens)
Construct: expressed in transfected cells; host or cells: HEK-293
Assay: Membrane system binding test: inhibition of [33P]-S1P binding to the membrane fraction of Edg-1(S1P1) gene transferred HEK-293 cells
Conditions: 10 μM compound; [33P]-S1P 0.1 nM; membrane fraction of Edg-1(S1P1) gene transferred HEK-293 cells; read-out: Membrane system binding test % inhibition (10 μM)
READOUT_KIND: inhibition at 10 µM (%)

Here are 5 compounds together with their reported answers.
STRUCTURE_AS_SMILES	OBSERVED_RESULT
CCn1c(OCCOC)nnc1[C@@H](C)NS(=O)(=O)c1ccc(Cl)cc1	54.3
CCN(CCSc1nnc([C@@H](C)NS(=O)(=O)c2ccc(Cl)cc2)n1CC)c1ccccc1	99.4
CCOc1nnc([C@@H](C)NS(=O)(=O)c2ccc(F)c(F)c2)n1CC	85.9
C=CCCSc1nnc([C@@H](C)NS(=O)(=O)c2ccc(Cl)cc2)n1CC	69.6
CCn1c(SCCCCCCN(C)C)nnc1[C@@H](C)NS(=O)(=O)c1ccc(Cl)cc1	90.6

A = CCn1c(SCC2CCCCC2)nnc1[C@@H](C)NS(=O)(=O)c1ccc(Cl)cc1
B = CCn1c(OC)nnc1[C@H](C)NS(=O)(=O)c1ccc(C(C)(C)C)cc1
Name the one with the greater inhibition at 10 µM value, either A or B as given. Refer to your chosen item by its label in the answer. A
(A: 77.8%, B: 45.3%)

###

Biological target: human Edg-1(S1P1) (Homo sapiens, UniProt P21453)
Construct: expressed in transfected cells; host or cells: HEK-293
Test: Membrane system binding test: inhibition of [33P]-S1P binding to the membrane fraction of Edg-1(S1P1) gene transferred HEK-293 cells
Details: 10 μM compound; [33P]-S1P 0.1 nM; membrane fraction of Edg-1(S1P1) gene transferred HEK-293 cells; read-out: Membrane system binding test % inhibition (10 μM)
READOUT_KIND: inhibition at 10 µM (%)

MOLECULE	TESTED_SYSTEM	OBSERVED_RESULT
CCOc1nnc([C@@H](C)NS(=O)(=O)c2ccc(C)cc2)n1CC [Compound 429]	human Edg-1(S1P1) (Homo sapiens, UniProt P21453)	74.2

a = CCOc1nnc([C@@H](C)NS(=O)(=O)c2ccc(OC)cc2)n1CC [Compound 420]
b = CCn1c(OC2CCC2)nnc1[C@@H](C)NS(=O)(=O)c1ccc(Cl)cc1 [Compound 387]
Name the one with the greater inhibition at 10 µM value, either a or b as given. Refer to your chosen item by its label in the answer. b
(b: 99.3%, a: 50.1%)

1 = CCn1c(SCc2cccc(N(C)C)c2)nnc1[C@@H](C)NS(=O)(=O)c1ccc(Cl)cc1 [Compound 71]
2 = CCn1c(OC)nnc1[C@@H](C)NS(=O)(=O)c1ccc2[nH]c(=O)oc2c1 [Compound 443]
Name the one with the greater inhibition at 10 µM value, either 1 or 2 as given. Refer to your chosen item by its label in the answer. 1
(1: 104%, 2: 43%)

###

Molecular target: human Edg-1(S1P1) (Homo sapiens)
Construct: expressed in transfected cells; host or cells: HEK-293
Assay: Cell system binding test: inhibition of [3H]-S1P binding to Edg-1(S1P1) gene transferred HEK-293 cells
Details: 10 μM compound, [3H]-S1P 10 nM, read-out: Cell system binding test % inhibition (10 μM)
READOUT_KIND: inhibition at 10 µM (%)

COMPOUND	OBSERVED_RESULT
CCn1c(OC)nnc1[C@H](C)NS(=O)(=O)c1ccc(C(C)(C)C)cc1	92.6
CCCC(NS(=O)(=O)c1ccc(Cl)cc1)c1nnc(SCc2ccccc2)n1C (stereo not drawn)	77
CCOc1nnc([C@@H](C)NS(=O)(=O)c2ccc3ccccc3c2)n1CC	90.4
CCn1c(OC)nnc1[C@@H](C)NS(=O)(=O)c1ccc(C(C)=O)cc1	93
CCn1c(OC)nnc1[C@@H](C)NS(=O)(=O)c1ccc(Br)cc1Br	94.5
CCn1c(OC)nnc1[C@@H](C)NS(=O)(=O)c1cc(Br)ccc1Br	97.7
CCn1c(OC)nnc1[C@@H](C)NS(=O)(=O)c1cccc2nsnc12	77.5
CCn1c(OC)nnc1[C@@H](C)NS(=O)(=O)c1ccc(S(C)(=O)=O)cc1	93.9
CCn1c(SCCc2ccccn2)nnc1[C@@H](C)NS(=O)(=O)c1ccc(Cl)cc1	92.9
CCn1c(OC)nnc1[C@@H](C)NS(=O)(=O)c1c(F)cccc1F	85.7
CCn1c(OC)nnc1[C@@H](C)NS(=O)(=O)c1sc2ccc(Cl)cc2c1C	96.8
C=CCSc1nnc([C@@H](CC)NS(=O)(=O)c2ccc(Cl)cc2)n1C(C)C	93.6
CCn1c(OC)nnc1[C@@H](Cc1ccccc1Cl)NS(=O)(=O)c1ccc(Cl)cc1	95
CCn1c(OC)nnc1[C@@H](C)NS(=O)(=O)c1c(C)nn(C)c1Cl	83.4
C=CCSc1nnc(C(CC)NS(=O)(=O)c2ccc(Cl)cc2)n1CC (stereo not drawn)	93
CCn1c(OC)nnc1[C@@H](C)NS(=O)(=O)c1ccc(Br)s1	99.9
CCn1c(OCCO)nnc1[C@@H](C)NS(=O)(=O)c1ccc(Cl)cc1	91.1
CCCC(CCC)Sc1nnc([C@@H](C)NS(=O)(=O)c2ccc(Cl)cc2)n1CC	84.3

###

Target: human Edg-1(S1P1) (Homo sapiens, UniProt P21453)
Construct: expressed in transfected cells; host or cells: HEK-293
Assay: Membrane system binding test: inhibition of [33P]-S1P binding to the membrane fraction of Edg-1(S1P1) gene transferred HEK-293 cells
Conditions: test compound 10^-5 M; [33P]-S1P 0.1 nM; 1 hour at 30° C.; HEK-293 membrane fraction; read-out: Edg-1(S1P1) binding inhibition rate (membrane system binding test)
READOUT_KIND: inhibition at 10 µM (%)

COMPOUND	inhibition at 10 µM (%)
CCn1c(OC(C)C)nnc1[C@@H](C)NS(=O)(=O)c1ccc(C)c(C)c1 [Compound 462]	92.1
CCn1c(OC(C)C)nnc1[C@@H](C)NS(=O)(=O)c1cc(F)c(F)c(F)c1 [Compound 458]	91.9
CCn1c(OCC2CC2)nnc1[C@@H](Cc1ccccc1)NS(=O)(=O)c1ccc(Cl)c(Cl)c1 [Compound 545]	101
CCn1c(OC(C)C)nnc1[C@@H](C)NS(=O)(=O)c1ccc(Br)c(C(F)(F)F)c1 [Compound 478]	86
CCn1c(OC(C)C)nnc1[C@@H](C)NS(=O)(=O)c1ccc(F)c(F)c1 [Compound 465]	88
CCn1c(OC(C)C)nnc1[C@@H](C)NS(=O)(=O)c1cccc(Cl)c1 [Compound 479]	83
CCn1c(OC(C)C)nnc1[C@@H](C)NS(=O)(=O)c1ccc2nsnc2c1 [Compound 472]	94.4
CCn1c(OC(C)C)nnc1[C@@H](C)NS(=O)(=O)c1cccc(C)c1 [Compound 470]	80.8
CCn1c(OCC(F)(F)F)nnc1[C@@H](C)NS(=O)(=O)c1ccc(Br)c(Br)c1 [Compound 502]	86.3
CCn1c(OCC(F)(F)F)nnc1[C@@H](C)NS(=O)(=O)c1cccc(Cl)c1 [Compound 514]	86.7
CCn1c(OCC(F)(F)F)nnc1[C@@H](C)NS(=O)(=O)c1cccc(C)c1 [Compound 505]	74.4
CCc1ccc(S(=O)(=O)N[C@H](C)c2nnc(OCC(F)(F)F)n2CC)cc1 [Compound 515]	62.4
CCn1c(OC(C)C)nnc1[C@@H](C)NS(=O)(=O)c1ccc2ccccc2c1 [Compound 464]	98.3
COc1nnc([C@@H](C)NS(=O)(=O)c2ccc(Cl)cc2)n1C(C)C [Compound 542]	92.3
CCn1c(OCC(F)(F)F)nnc1[C@@H](C)NS(=O)(=O)c1cccc(OC(F)F)c1 [Compound 497]	66.5
CCn1c(OCC(F)(F)F)nnc1[C@@H](C)NS(=O)(=O)c1ccc(Br)cc1 [Compound 492]	87.9
CCn1c(OCC(F)(F)F)nnc1[C@@H](C)NS(=O)(=O)c1ccc(Br)s1 [Compound 484]	63.2
CCn1c(OCC(F)(F)F)nnc1[C@@H](C)NS(=O)(=O)c1ccc(F)c(Cl)c1 [Compound 488]	91.4
CCn1c(OCC(F)(F)F)nnc1[C@@H](C)NS(=O)(=O)c1ccc(F)cc1 [Compound 512]	71.5
CCn1c(OC(C)C)nnc1[C@@H](C)NS(=O)(=O)c1ccc(I)cc1 [Compound 476]	86.1
CCn1c(OCC(F)(F)F)nnc1[C@@H](C)NS(=O)(=O)c1ccc(I)cc1 [Compound 511]	85.4
CCn1c(SC)nnc1C(Cc1ccc(Cl)c(Cl)c1)NS(=O)(=O)c1ccc(Cl)c(Cl)c1 (stereo not drawn) [Compound 524]	75
CCn1c(OC(C)C)nnc1[C@@H](C)NS(=O)(=O)c1cccc(OC(F)(F)F)c1 [Compound 469]	83.9
CCn1c(OC)nnc1[C@@H](Cc1cccc(F)c1)NS(=O)(=O)c1ccc(Cl)c(Cl)c1 [Compound 551]	101
CCn1c([C@@H](C)NS(=O)(=O)c2ccc(Cl)c(Cl)c2)nnc1S(C)(=O)=O [Compound 532]	53.8
COc1nnc([C@@H](Cc2ccccc2)NS(=O)(=O)c2ccc(Cl)c(Cl)c2)n1C [Compound 553]	94.2
CCn1c(OC(C)C)nnc1[C@@H](C)NS(=O)(=O)c1ccc(Br)c(F)c1 [Compound 455]	91.7
CCOc1nnc([C@@H](Cc2ccccc2)NS(=O)(=O)c2ccc(Cl)c(Cl)c2)n1CC [Compound 536]	98.4
CCn1c(OCC(F)(F)F)nnc1[C@@H](C)NS(=O)(=O)c1cc(F)cc(F)c1 [Compound 501]	55.4
CCn1c(OC2CCCC2)nnc1[C@@H](Cc1ccccc1)NS(=O)(=O)c1ccc(Cl)c(Cl)c1 [Compound 533]	98.9
CCn1c(OC2CCC2)nnc1[C@@H](Cc1ccccc1)NS(=O)(=O)c1ccc(Cl)c(Cl)c1 [Compound 531]	100
CCn1c(OC(C)C)nnc1[C@@H](Cc1ccccc1)NS(=O)(=O)c1ccc(Cl)c(Cl)c1 [Compound 537]	101
CCCn1c(OC)nnc1[C@@H](C)NS(=O)(=O)c1ccc(Cl)cc1 [Compound 541]	75.8
